Molecular target: VEGFR2 kinase (Homo sapiens, UniProt P35968)
Construct: recombinant N-terminal 6×His-tagged VEGFR2 kinase domain construct expressed by baculovirus; 6xHis (N); made in house
Sequence (P35968 834-1162 limits assumed): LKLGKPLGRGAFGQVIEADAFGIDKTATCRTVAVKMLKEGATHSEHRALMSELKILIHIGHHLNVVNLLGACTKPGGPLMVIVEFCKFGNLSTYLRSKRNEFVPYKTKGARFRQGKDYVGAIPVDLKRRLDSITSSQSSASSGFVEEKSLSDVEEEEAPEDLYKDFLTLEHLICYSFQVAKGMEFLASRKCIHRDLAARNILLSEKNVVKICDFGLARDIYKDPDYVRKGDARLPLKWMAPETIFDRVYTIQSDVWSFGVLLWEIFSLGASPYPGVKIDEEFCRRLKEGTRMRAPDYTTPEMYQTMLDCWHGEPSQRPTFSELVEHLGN
Experiment: VEGFR2 kinase assay (33P incorporation into Poly(Glu-Tyr))
Assay type: biochemical
Details: 500 nM test compound; read-out: Inhibition at 500 nM (%) VEGFr-2
Counter-ions that a name gives are not always drawn.
Decision: inhibition at 0.5 µM compared against 30%; not below it gives Satisfied, below it gives Not satisfied.

Does CN1CCN(S(=O)(=O)c2ccc3c(c2)/C(=C/c2[nH]c4c(c2CCC(=O)O)C(=O)CCC4)C(=O)N3)CC1 [DCB-70107, hydrochloride] have a reported inhibition at 0.5 µM of at least 30%?
Satisfied

# iterate: COc1ccc(-c2ccc3c(c2)/C(=C/c2[nH]c4c(c2CCC(=O)O)C(=O)CCC4)C(=O)N3)cc1OC [DCB-70068]
Satisfied

// same read-out, input: CCOC(=O)CCc1c(/C=C2\C(=O)Nc3ccc(-c4ccc(OC)c(OC)c4)cc32)[nH]c2c1C(=O)CCC2 [DCB-70067]
Not satisfied

Again, but for NS(=O)(=O)c1ccc2c(c1)/C(=C/c1[nH]c3c(c1CCC(=O)O)C(=O)CCC3)C(=O)N2 [DCB-70095]
Satisfied

Then this compound: CCOC(=O)CCc1c(/C=C2\C(=O)Nc3ccc(NC(=O)c4ccc(OC)cc4)cc32)[nH]c2c1C(=O)CCC2 [DCB-70141]
Not satisfied

Now consider CNS(=O)(=O)c1ccc2c(c1)/C(=C/c1[nH]c3c(c1CCC(=O)O)C(=O)CCC3)C(=O)N2 [DCB-70065] .
Satisfied

Try CN(C)S(=O)(=O)c1ccc2c(c1)/C(=C/c1[nH]c3c(c1CCC(=O)O)C(=O)CCC3)C(=O)N2 [DCB-70121] next.
Not satisfied

Same thing, different compound: CCOC(=O)CCc1c(/C=C2\C(=O)Nc3cc(-c4ccc5c(c4)OCO5)ccc32)[nH]c2c1C(=O)CCC2 [DCB-70128]
Not satisfied

====

For each record, write down the corresponding inhibition at 0.5 µM.
Biological target: VEGFR2 kinase (Homo sapiens)
Construct: recombinant N-terminal 6×His-tagged VEGFR2 kinase domain construct expressed by baculovirus; 6xHis (N); made in house
Assay: VEGFR2 kinase assay (33P incorporation into Poly(Glu-Tyr))
Type: biochemical
Conditions: 500 nM test compound; read-out: Inhibition at 500 nM (%) VEGFr-2
Give just the number in %; leave the unit off.

So what inhibition at 0.5 µM did CCOC(=O)CCc1c(/C=C2\C(=O)Nc3cc(Br)ccc32)[nH]c2c1C(=O)CCC2 get with VEGFR2 kinase (Homo sapiens)?
69.8

O=C(O)CCc1c(/C=C2\C(=O)Nc3ccc(S(=O)(=O)N4CCOCC4)cc32)[nH]c2c1C(=O)CCC2 ?
17.2

Please answer likewise for O=C(O)CCc1c(/C=C2\C(=O)Nc3ccc(NS(=O)(=O)c4ccccc4)cc32)[nH]c2c1C(=O)CCCC2
71.3

Cool, now O=C(O)CCc1c(C=C2C(=S)Nc3cc(Br)ccc32)[nH]c2c1C(=O)CCC2
21.9

// repeat for CCOC(=O)CCc1c(/C=C2\C(=O)Nc3cc(-c4ccc(O)c(O)c4)ccc32)[nH]c2c1C(=O)CCC2 and report
89.7

Next up: CCOC(=O)CCc1c(/C=C2\C(=O)Nc3cc(-c4ccc(F)cc4)ccc32)[nH]c2c1C(=O)CCC2
20.4

And O=C(O)CCc1c(/C=C2\C(=O)Nc3ccc(S(=O)(=O)N4CCCCC4)cc32)[nH]c2c1C(=O)CCC2 ?
22.6

And the next one, O=C(O)CCc1c(/C=C2\C(=O)Nc3ccc(NS(=O)(=O)c4ccccc4)cc32)[nH]c2c1C(=O)CCC2 ?
88.3

Next: O=C(O)CCc1c(/C=C2\C(=O)Nc3cc(Br)ccc32)[nH]c2c1C(=O)CCC2
54.2

Same question for O=C(O)CCc1c(/C=C2\C(=O)Nc3cc(-c4ccc(O)cc4)ccc32)[nH]c2c1C(=O)CCC2 please.
99.6

Subsequent entry: COc1cc(-c2ccc3c(c2)/C(=C/c2[nH]c4c(c2CCC(=O)O)C(=O)CCC4)C(=O)N3)ccc1O
70.9

Let us now turn to C=CS(=O)(=O)c1ccc2c(c1)/C(=C/c1[nH]c3c(c1CCC(=O)O)C(=O)CCC3)C(=O)N2
52.2

Try CCN(CC)C(=O)CCc1c(/C=C2\C(=O)Nc3ccc(F)cc32)[nH]c2c1C(=O)CCC2 next.
72.5

COc1ccc(C(=O)Nc2ccc3c(c2)/C(=C/c2[nH]c4c(c2CCC(=O)O)C(=O)CCC4)C(=O)N3)cc1 ?
38.1

Record: O=C(O)CCc1c(/C=C2\C(=O)Nc3ccc(-c4ccc(F)cc4)cc32)[nH]c2c1C(=O)CCC2
58.6
